assay: Biodistribution by gamma counting of harvested organs; format: in vivo; details: mouse, large intestine, iv, 150 uCi, total radioactivity
Bridges are numbered along the chain shown (N, C = ends). Roman numbers before positions name the chains, in order. Where no end group is shown, it is not given here. The star is where a group is joined. X1 = O=C(CON=Cc1ccc(F)cc1)*
Readout: tissue uptake at 4 h (%ID/g)

| Substance | Readout | Recorded Value |
| --- | --- | --- |
| I: VHPKQHRGGSYKKK(X1) / II: VHPKQHRGGSYK / III: VHPKQHRGGSY / IV: VHPKQHRGGSY (amide I:12-IV:C, I:13-II:C, II:12-III:C) [^18F-4V] | tissue uptake at 4 h | 1.4 |

###

assay: Biodistribution by gamma counting of harvested organs; type: in vivo; conditions: mouse, feces, iv, 150 uCi, total radioactivity
Bridges are numbered along the chain shown (N, C = ends). Roman numbers before positions name the chains, in order. Where no end group is shown, it is not given here. The star is where a group is joined. X1 = O=C(CON=Cc1ccc(F)cc1)*

| Substance | dose excreted at 4 h (%) |
| --- | --- |
| I: VHPKQHRGGSYKKK(X1) / II: VHPKQHRGGSYK / III: VHPKQHRGGSY / IV: VHPKQHRGGSY (amide I:12-IV:C, I:13-II:C, II:12-III:C) [^18F-4V] | 0.2 |

###

experiment: Biodistribution by gamma counting of harvested organs; assay type: in vivo; conditions: mouse, skeletal muscle, iv, 150 uCi, total radioactivity
Bridges are numbered along the chain shown (N, C = ends). Roman numbers before positions name the chains, in order. Where no end group is shown, it is not given here. The star is where a group is joined. X1 = O=C(CON=Cc1ccc(F)cc1)*

| Substance | tissue uptake at 4 h [%ID/g] |
| --- | --- |
| I: VHPKQHRGGSYKKK(X1) / II: VHPKQHRGGSYK / III: VHPKQHRGGSY / IV: VHPKQHRGGSY (amide I:12-IV:C, I:13-II:C, II:12-III:C) [^18F-4V] | 0.7 |

###

assay: Biodistribution by gamma counting of harvested organs; format: in vivo; details: mouse, aorta, iv, 150 uCi, total radioactivity
Bridges are numbered along the chain shown (N, C = ends). Roman numbers before positions name the chains, in order. Where no end group is shown, it is not given here. The star is where a group is joined. X1 = O=C(CON=Cc1ccc(F)cc1)*
Readout: tissue uptake at 4 h (%ID/g)

| Substance | Recorded Value |
| --- | --- |
| I: VHPKQHRGGSYKKK(X1) / II: VHPKQHRGGSYK / III: VHPKQHRGGSY / IV: VHPKQHRGGSY (amide I:12-IV:C, I:13-II:C, II:12-III:C) [^18F-4V] | 1.3 |

###

assay: Biodistribution by gamma counting of harvested organs; type: in vivo; conditions: mouse, fat, iv, 150 uCi, total radioactivity
Bridges are numbered along the chain shown (N, C = ends). Roman numbers before positions name the chains, in order. Where no end group is shown, it is not given here. The star is where a group is joined. X1 = O=C(CON=Cc1ccc(F)cc1)*

| Substance | tissue uptake at 4 h [%ID/g] |
| --- | --- |
| I: VHPKQHRGGSYKKK(X1) / II: VHPKQHRGGSYK / III: VHPKQHRGGSY / IV: VHPKQHRGGSY (amide I:12-IV:C, I:13-II:C, II:12-III:C) [^18F-4V] | 1.7 |
